Data origin: paper PMC10535864

system: HT-29 colorectal adenocarcinoma cells; test: MTT cytotoxicity assay, HT-29; assay type: cell-based; details: HT29; MTT; 5 uM
Each entry below carries its recorded Toxicity %.
Just the number in %, nothing appended.

Recorded results for 3 compounds are shown here.
| compound | Toxicity % [%] |
| --- | --- |
| Nc1c(/N=C(/CBr)c2ccc([N+](=O)[O-])cc2)c(=O)[nH]c(=O)n1Cc1ccccc1 | 74.68 |
| Nc1c(/N=C(/CBr)c2ccc([N+](=O)[O-])cc2)c(=O)[nH]c(=O)n1Cc1ccccc1Cl | 93.84 |
| CCn1c(N)c(/N=C(/CBr)c2ccc(OC)cc2)c(=O)[nH]c1=O | 95.95 |

Now look at this one.
Item CN(Cc1cnc2nc(N)nc(N)c2n1)c1ccc(C(=O)N[C@@H](CCC(=O)O)C(=O)O)cc1 [Methotrexate, reference compound] with HT-29 colorectal adenocarcinoma cells - Toxicity %?
97.45

* * *

test system: MDA-MB-231 breast cancer cells; assay: MTT cytotoxicity assay, MDA-MB-231; assay type: cell-based; conditions: Homo sapiens; MDA-MB-231; MTT; 0.312 uM
measure.name: viability at 0.312 µM (%)
Just the number in %, nothing appended.

Recorded results for 3 compounds are shown here.
| compound | measure.name | endpoint.result |
| --- | --- | --- |
| COc1ccc(/C(CBr)=N\c2c(N)n(Cc3ccccc3Cl)c(=O)[nH]c2=O)cc1 [Compound 6b] | viability at 0.312 µM | 84.9 |
| Nc1c(/N=C(/CBr)c2ccc([N+](=O)[O-])cc2)c(=O)[nH]c(=O)n1Cc1ccccc1Cl [Compound 5c] | viability at 0.312 µM | 99.4 |
| Cn1c(SCC(=O)c2ccccc2)nc(=O)c(/N=C(/CBr)c2ccccc2)c1N [Compound 7] | viability at 0.312 µM | 57 |

Looking for the measured viability at 0.312 µM of Nc1c(/N=C(/CBr)c2ccccc2)c(=O)[nH]c(=O)n1Cc1ccccc1 [Compound 4] , can you help?
99.7

* * *

target: human recombinant PLK1 (Homo sapiens); assay: PLK1 inhibitory activity assay (ADP-Glo Kinase Assay); conditions: mean of three independent experiments; read-out: PLK1 IC50 ± SD
Each entry below carries its recorded pIC50.
In plain terms, pIC50 is the concentration in mol/L turned into minus its base-10 logarithm.

Recorded results for 5 molecules are shown here.
| molecule | pIC50 |
| --- | --- |
| COc1ccc(/C(CBr)=N\c2c(N)n(Cc3ccccc3Cl)c(=O)[nH]c2=O)cc1 [Compound 6b] | 6.69 |
| CC[C@@H]1C(=O)N(C)c2cnc(Nc3ccc(C(=O)N[C@H]4CC[C@H](N5CCN(CC6CC6)CC5)CC4)cc3OC)nc2N1C(C)C [Volasertib, reference compound] | 7.60 |
| CCn1c(N)c(/N=C(/CBr)c2ccc(OC)cc2)c(=O)[nH]c1=O [Compound 6a] | 6.66 |
| Nc1c(/N=C(/CBr)c2ccccc2)c(=O)[nH]c(=O)n1Cc1ccccc1 [Compound 4] | 7.03 |
| COc1ccc(-c2cnc3c(n2)c(=O)[nH]c(=O)n3Cc2ccccc2)cc1 [Compound 9] | 7.39 |

Now look at this one.
Item Cn1c(SCC(=O)c2ccccc2)nc(=O)c(/N=C(/CBr)c2ccccc2)c1N [Compound 7] with human recombinant PLK1 (Homo sapiens) - pIC50?
7.70

* * *

system: MDA-MB-231 breast cancer cells; assay: MTT cytotoxicity assay, MDA-MB-231; type: cell-based; details: Homo sapiens; MDA-MB-231; MTT; 5 uM
Entries whose viability at 5 µM is below 20% take label 1; entries at or above 20% take label 0.

Look over these answered cases.
| compound | qualitative.label |
| --- | --- |
| COc1ccc(-c2cnc3c(n2)c(=O)[nH]c(=O)n3Cc2ccccc2)cc1 [Compound 9] | label 1 |
| Cn1c(SCC(=O)c2ccc([N+](=O)[O-])cc2)nc(=O)c(/N=C(/CBr)c2ccc([N+](=O)[O-])cc2)c1N [Compound 8] | label 0 |
| Nc1c(/N=C(/CBr)c2ccc([N+](=O)[O-])cc2)c(=O)[nH]c(=O)n1Cc1ccccc1Cl [Compound 5c] | label 1 |
| Nc1c(/N=C(/CBr)c2ccc([N+](=O)[O-])cc2)c(=O)[nH]c(=O)n1Cc1ccccc1 [Compound 5b] | label 0 |
| Cn1c(=S)[nH]c(=O)c2nc(-c3ccccc3)c(-c3ccccc3)nc21 [Compound 10] | label 0 |

# ---- query compound ----
viability at 5 µM strictly < 20% for this compound? Cn1c(SCC(=O)c2ccccc2)nc(=O)c(/N=C(/CBr)c2ccccc2)c1N [Compound 7]
label 1

* * *

molecular target: human recombinant PLK1 (Homo sapiens, UniProt P53350); assay: PLK1 inhibitory activity assay (ADP-Glo Kinase Assay); assay type: biochemical; details: PLK1 Lab Report; conc 0.01 (unit not given)
Sequence (P53350 whole entry): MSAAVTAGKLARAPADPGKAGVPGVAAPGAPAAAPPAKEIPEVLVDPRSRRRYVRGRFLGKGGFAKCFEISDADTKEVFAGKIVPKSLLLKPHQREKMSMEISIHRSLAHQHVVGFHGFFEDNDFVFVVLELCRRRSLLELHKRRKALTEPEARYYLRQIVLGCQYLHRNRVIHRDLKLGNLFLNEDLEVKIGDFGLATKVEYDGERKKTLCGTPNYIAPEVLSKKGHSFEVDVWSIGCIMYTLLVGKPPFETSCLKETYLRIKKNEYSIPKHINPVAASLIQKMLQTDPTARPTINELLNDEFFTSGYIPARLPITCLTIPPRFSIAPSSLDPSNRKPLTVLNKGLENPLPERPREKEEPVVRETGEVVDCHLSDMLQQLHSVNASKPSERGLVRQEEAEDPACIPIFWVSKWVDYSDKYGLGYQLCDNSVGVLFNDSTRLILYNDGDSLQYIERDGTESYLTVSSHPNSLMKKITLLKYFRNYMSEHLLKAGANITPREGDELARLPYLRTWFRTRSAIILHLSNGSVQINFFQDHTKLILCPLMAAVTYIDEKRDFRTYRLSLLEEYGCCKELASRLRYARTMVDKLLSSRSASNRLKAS
measure.name: %inh (%)
Just the number in %, nothing appended.

Recorded results for 3 compounds are shown here.
| compound | %inh / % |
| --- | --- |
| COc1ccc(/C(CBr)=N\c2c(N)n(Cc3ccccc3Cl)c(=O)[nH]c2=O)cc1 [Compound 6b] | 28 |
| Cn1c(SCC(=O)c2ccccc2)nc(=O)c(/N=C(/CBr)c2ccccc2)c1N [Compound 7] | 43 |
| Nc1c(/N=C(/CBr)c2ccccc2)c(=O)[nH]c(=O)n1Cc1ccccc1 [Compound 4] | 34 |

Looking for the measured %inh of CCn1c(N)c(/N=C(/CBr)c2ccc(OC)cc2)c(=O)[nH]c1=O [Compound 6a] , can you help?
25

Next record, please: CC[C@@H]1C(=O)N(C)c2cnc(Nc3ccc(C(=O)N[C@H]4CC[C@H](N5CCN(CC6CC6)CC5)CC4)cc3OC)nc2N1C(C)C [Volasertib, reference compound]
42

* * *

test: MTT cytotoxicity assay, U-937; assay type: cell-based; settings: Homo sapiens, U-937; U937; MTT; 2.5 uM;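 note: Six-dose MTT colorimetric assay on cell monolayers, formazan absorbance read at 560 nm with 620 nm background removed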
Each entry below carries its recorded viability at 2.5 µM.
Just the number in %, nothing appended.

| compound | unit | viability at 2.5 µM |
| --- | --- | --- |
| Cn1c(=S)[nH]c(=O)c2nc(-c3ccccc3)c(-c3ccccc3)nc21 | % | 95.8 |

Looking for the measured viability at 2.5 µM of "Cn1c(SCC(=O)c2ccccc2)nc(=O)c(/N=C(/CBr)c2ccccc2)c1N" , can you help?
39.7

Next record, please: CN(Cc1cnc2nc(N)nc(N)c2n1)c1ccc(C(=O)N[C@@H](CCC(=O)O)C(=O)O)cc1 [Methotrexate, reference compound]
31.5

Next record, please: "CCn1c(N)c(/N=C(/CBr)c2ccc([N+](=O)[O-])cc2)c(=O)[nH]c1=O"
89.7

* * *

target: human recombinant PLK1 (Homo sapiens, UniProt P53350); experiment: PLK1 inhibitory activity assay (ADP-Glo Kinase Assay); assay type: biochemical; details: PLK1 Lab Report; conc 10 (unit not given)
measure.name: %inh

| compound | experimental.target | %inh |
| --- | --- | --- |
| CCn1c(N)c(/N=C(/CBr)c2ccc(OC)cc2)c(=O)[nH]c1=O | human recombinant PLK1 (Homo sapiens, UniProt P53350) | 87% |
| COc1ccc(/C(CBr)=N\c2c(N)n(Cc3ccccc3Cl)c(=O)[nH]c2=O)cc1 | human recombinant PLK1 (Homo sapiens, UniProt P53350) | 80% |

Item "Cn1c(SCC(=O)c2ccccc2)nc(=O)c(/N=C(/CBr)c2ccccc2)c1N" with human recombinant PLK1 (Homo sapiens, UniProt P53350) - %inh?
90%

Next record, please: "Nc1c(/N=C(/CBr)c2ccccc2)c(=O)[nH]c(=O)n1Cc1ccccc1"
88%

Next record, please: CC[C@@H]1C(=O)N(C)c2cnc(Nc3ccc(C(=O)N[C@H]4CC[C@H](N5CCN(CC6CC6)CC5)CC4)cc3OC)nc2N1C(C)C [Volasertib, reference compound]
91%

* * *

test system: normal Vero cells; test: MTT cytotoxicity assay, normal Vero cells; format: cell-based; settings: Vero; MTT; 0.312 uM;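 note: monolayers exposed to two-fold dilutions in 2% serum medium, MTT added for 4 h, formazan in DMSO read at 560 nm minus 620 nm, controls given medium alone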
measure.name: Toxicity % (%)
Just the number in %, nothing appended.

Recorded results for 2 molecules are shown here.
| molecule | unit | Toxicity % |
| --- | --- | --- |
| CCn1c(N)c(/N=C(/CBr)c2ccc(OC)cc2)c(=O)[nH]c1=O [Compound 6a] | % | 0.1996 |
| COc1ccc(/C(CBr)=N\c2c(N)n(Cc3ccccc3Cl)c(=O)[nH]c2=O)cc1 [Compound 6b] | % | 0.9182 |

Looking for the measured Toxicity % of Nc1c(/N=C(/CBr)c2ccccc2)c(=O)[nH]c(=O)n1Cc1ccccc1 [Compound 4] , can you help?
0

Next record, please: CN(Cc1cnc2nc(N)nc(N)c2n1)c1ccc(C(=O)N[C@@H](CCC(=O)O)C(=O)O)cc1 [Methotrexate, reference compound]
0.3046

Next record, please: Cn1c(SCC(=O)c2ccccc2)nc(=O)c(/N=C(/CBr)c2ccccc2)c1N [Compound 7]
0.3992
